- system-tested: recombinant human PREP (Homo sapiens (Human))
- Sequence (P48147 whole entry): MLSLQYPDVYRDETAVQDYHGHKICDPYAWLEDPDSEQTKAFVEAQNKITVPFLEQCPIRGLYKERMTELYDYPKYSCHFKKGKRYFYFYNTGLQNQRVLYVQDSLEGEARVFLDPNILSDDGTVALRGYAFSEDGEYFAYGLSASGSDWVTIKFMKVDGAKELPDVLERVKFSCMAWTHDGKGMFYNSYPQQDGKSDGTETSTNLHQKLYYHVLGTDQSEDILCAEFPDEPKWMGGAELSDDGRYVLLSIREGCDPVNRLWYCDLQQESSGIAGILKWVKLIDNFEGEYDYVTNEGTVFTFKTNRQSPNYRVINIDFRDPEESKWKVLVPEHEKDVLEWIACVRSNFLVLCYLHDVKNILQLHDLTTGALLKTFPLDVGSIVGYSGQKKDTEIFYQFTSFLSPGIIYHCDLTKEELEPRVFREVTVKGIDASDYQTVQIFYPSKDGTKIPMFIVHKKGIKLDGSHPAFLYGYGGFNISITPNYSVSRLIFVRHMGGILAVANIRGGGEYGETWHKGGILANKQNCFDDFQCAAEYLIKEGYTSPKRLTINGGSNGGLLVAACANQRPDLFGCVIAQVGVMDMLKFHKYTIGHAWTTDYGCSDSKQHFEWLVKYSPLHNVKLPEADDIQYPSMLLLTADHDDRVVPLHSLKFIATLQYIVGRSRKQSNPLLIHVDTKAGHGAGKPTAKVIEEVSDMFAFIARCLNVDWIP
- test: In vitro enzyme IC50 assay, PREP
- Type: biochemical
- stated-conditions: pH2.0; read-out: PREP Inhibition (IC50)
experimental-endpoint: IC50 (µM)

Please review the entries below; each comes with its answer.
record-smiles: C[C@@H](NC(=O)c1ccc(F)cc1F)C(=O)N1CCC[C@H]1B(O)O
number: 0.79

record-smiles: C[C@@H](NC(=O)c1ccnc(F)c1F)C(=O)N1CCC[C@H]1B(O)O
number: 1.9

(A) C[C@@H](NC(=O)c1c(F)c(F)c(F)c(F)c1F)C(=O)N1CCC[C@H]1B(O)O
(B) C[C@@H](NC(=O)c1ccc(F)cc1)C(=O)N1CCC[C@H]1B(O)O
Lab note: record which item had the higher IC50, A or B . Answer by stating the label of the chosen item.
B
(B: 4.1 µM, A: 1.2 µM)

###

- system-tested: recombinant human PREP (Homo sapiens (Human))
- test: In vitro enzyme IC50 assay, PREP
- Type: biochemical
- stated-conditions: pH7.5; read-out: PREP Inhibition (IC50)
experimental-endpoint: IC50 (nM)

record-smiles: C[C@@H](NC(=O)c1ccc(OCF)cc1)C(=O)N1CCC[C@H]1B(O)O
IC50 / nM: 1900
//
record-smiles: C[C@@H](NC(=O)c1ccc(F)cc1)C(=O)N1CCC[C@H]1B(O)O
IC50 / nM: 5700
//
record-smiles: C[C@@H](NC(=O)c1ccc(F)cc1F)C(=O)N1CCC[C@H]1B(O)O
IC50 / nM: 1400
//
record-smiles: C[C@@H](NC(=O)c1cccc(OCF)c1)C(=O)N1CCC[C@H]1B(O)O
IC50 / nM: 53
//
record-smiles: C[C@@H](NC(=O)c1ccnc(F)c1F)C(=O)N1CCC[C@H]1B(O)O
IC50 / nM: 2200
//
record-smiles: C[C@@H](NC(=O)c1cc(F)ncc1F)C(=O)N1CCC[C@H]1B(O)O
IC50 / nM: 2300
//
record-smiles: C[C@@H](NC(=O)c1ccccc1F)C(=O)N1CCC[C@H]1B(O)O
IC50 / nM: 3100

(1) C[C@@H](NC(=O)c1cc(F)nc(F)c1)C(=O)N1CCC[C@H]1B(O)O
(2) C[C@@H](NC(=O)c1c(F)c(F)c(F)c(F)c1F)C(=O)N1CCC[C@H]1B(O)O
Between 1 and 2 , whose recorded IC50 is greater? Write down the label attached to your selection.
1
(1: 2500 nM, 2: 1500 nM)

###

- system-tested: recombinant human FAP (Homo sapiens (Human), UniProt Q12884)
- Sequence (Q12884 whole entry): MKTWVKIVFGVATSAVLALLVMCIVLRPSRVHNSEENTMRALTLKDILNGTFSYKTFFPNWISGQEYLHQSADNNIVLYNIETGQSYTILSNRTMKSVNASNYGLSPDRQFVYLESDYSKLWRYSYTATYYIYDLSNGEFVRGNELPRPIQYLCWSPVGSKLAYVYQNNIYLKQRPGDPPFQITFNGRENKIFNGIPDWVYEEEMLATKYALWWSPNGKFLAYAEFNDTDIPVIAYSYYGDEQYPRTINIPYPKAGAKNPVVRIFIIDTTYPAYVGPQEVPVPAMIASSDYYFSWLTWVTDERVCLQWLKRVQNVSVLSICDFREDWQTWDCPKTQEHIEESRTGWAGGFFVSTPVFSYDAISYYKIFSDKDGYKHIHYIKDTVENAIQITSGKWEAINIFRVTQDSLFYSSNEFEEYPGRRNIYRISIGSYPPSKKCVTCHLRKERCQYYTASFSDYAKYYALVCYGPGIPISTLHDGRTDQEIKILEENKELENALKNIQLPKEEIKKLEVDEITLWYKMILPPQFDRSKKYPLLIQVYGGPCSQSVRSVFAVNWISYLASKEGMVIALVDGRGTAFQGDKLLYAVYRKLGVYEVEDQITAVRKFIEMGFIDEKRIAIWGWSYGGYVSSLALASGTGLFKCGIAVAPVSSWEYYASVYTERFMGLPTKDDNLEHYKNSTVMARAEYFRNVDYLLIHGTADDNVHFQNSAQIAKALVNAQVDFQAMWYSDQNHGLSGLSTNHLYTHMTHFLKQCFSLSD
- test: In vitro enzyme IC50 assay, FAP
- Type: biochemical
- stated-conditions: pH2.0; read-out: FAP Inhibition (IC50)
pIC50: −log10 of the molar value.
experimental-endpoint: pIC50

Below, each entry is followed by its recorded pIC50 result.
record-smiles: C[C@@H](NC(=O)c1cc(F)nc(F)c1)C(=O)N1CCC[C@H]1B(O)O
pIC50: 7.00
//
record-smiles: C[C@@H](NC(=O)c1ccc(F)cc1)C(=O)N1CCC[C@H]1B(O)O
pIC50: 6.66
//
record-smiles: C[C@@H](NC(=O)c1c(F)c(F)c(F)c(F)c1F)C(=O)N1CCC[C@H]1B(O)O
pIC50: 6.35

(I) C[C@@H](NC(=O)c1ccc(F)cc1F)C(=O)N1CCC[C@H]1B(O)O
(II) C[C@@H](NC(=O)c1ccnc(F)c1F)C(=O)N1CCC[C@H]1B(O)O
Hey, which is lower on measured pIC50, I or II ? Write down the label of the entry you select.
I
(I: 6.16, II: 6.89)
